Target: T1, human CD3e/g antigen (ACRO, catalog number CDG-H52W5) (human, UniProt P07766 23-126; P09693 23-116)
T1 construct: Bought reagent used as the Biacore analyte; also called hCD3e/g
Test: SPR (Biacore 8K), antibody captured via anti-human Fc
Measured quantity: koff (s⁻¹)
Field format: number, assumed s⁻¹, no unit text.

Worked examples, 2 binders total:
{"Binder": "hAb008-27 (antibody, V domains shown, Humanized; constant regions not specified) VH: QVQLVQSGAEVKKPGASVKVSCKASGYTFTDYTVNWVRQAPGQRLEWIGYINPFNSYTKYNQKFKDRATITADTSASTAYMELSSLRSEDTAVYFCANSVSTYWGQGTTVTVSS VL: DVVMTQSPLSLPVTLGQPASISCKSSQSLLDSDGKTYLNWLLQRPGQSPRRLIQLVSKLNSGVPDRFSGSGSGTDFTLKISRVEAEDVGVFYCWQGTHFPRTFGGGTKLEIK", "Measured": 0.00475}
{"Binder": "CAb001 (antibody, V domains shown, Chimeric: mouse variable regions linked to human light and heavy constant regions; constant regions not specified) VH: QVQLQQSGPELVKPGASVKISCKASGYSFTNYYMHWVKQRPGQGLEWIGWTYPGNNNIKYNEKFKGKATLTADTSSSTAYMQLSSLTSEDSAVYYCARDGYGYYFFDYWGQGIILTVSS VL: DIVMSQSPSSLAVSAGEKVTMSCKSSQSLLNNRTRKNYLAWYQQKPGQSPKLLIYWASTRESGVPDRFTGSGSGTDFTLTISSVQAEDLAIYYCKQSYTLRTFGGGTKLAIK", "Measured": 0.00616}

Respond only with koff recorded for hAb008-16 (antibody, V domains shown, Humanized; constant regions not specified) VH: QVQLVQSGAEVKKPGASVKVSCKASGYTFTDYTVNWVRQAPGQRLEWMGYINPFNSYTKYNQKFKDRVTITRDTSASTAYMELSSLRSEDTAVYYCARSVSTYWGQGTTVTVSS VL: DVVMTQSPLSLPVTLGQPASISCKSSQSLLDSDGKTYLNWFQQRPGQSPRRLIYLVSKLNSGVPDRFSGSGSGTDFTLKISRVEAEDVGVYYCWQGTHFPRTFGGGTKLEIK
0.00189
